Assay: DRUGMATRIX: Leukotriene, BLT (LTB4) radioligand binding (ligand: [3H]LTB4)
Format: cell membranes, Membrane
Conditions: u-937; Not Active = under 50% inhibition at 10 µM; read-out: IC50
Please provide measured IC50 for the entries that follow.
I only need the number, in nM, no unit after it.

Req: Let me know recorded IC50 for CCCCCCCCNC(C)C(O)c1ccc(SC(C)C)cc1 (stereo not drawn) , thanks.
Resp: 1440

Req: Let me know recorded IC50 for CCc1ccc(CCOc2ccc(CC3SC(=O)NC3=O)cc2)nc1 (stereo not drawn) , thanks.
Resp: 86900

Req: Let me know recorded IC50 for `N=C(N)c1ccc(OCCCCCOc2ccc(C(=N)N)cc2)cc1` , thanks.
Resp: 242

----------
Experiment: DRUGMATRIX: GABAA, Flunitrazepam, Central radioligand binding (ligand: [3H] Flunitrazepam)
Format: cell membranes, Rattus norvegicus, Wistar, Brain, Membrane
Conditions: Not Active = under 50% inhibition at 10 µM
READOUT NAME: IC50

Would you please look over these solved cases?
>>> measured("O=C1C[C@@H]2OCC=C3CN4CC[C@]56c7ccccc7N1[C@H]5[C@H]2[C@H]3C[C@H]46")
"Not Active"
>>> measured("Nc1ccc(S(=O)(=O)NC(=O)c2ccccc2)cc1 [SULFABENZAMIDE]")
"Not Active"
>>> measured("Cc1cccc(C)c1NC(=O)C1CCCCN1C (stereo unspecified) [MEPIVACAINE]")
"Not Active"
>>> measured("N[C@@H](Cn1ccc(=O)c(O)c1)C(=O)O")
"Not Active"

Req: Let me know recorded IC50 for `O=c1[nH]c(=O)n([C@H]2C[C@H](O)[C@@H](CO)O2)cc1F` , thanks.
Resp: Not Active

Req: Let me know recorded IC50 for CCN(CC)CCNC(=O)c1ccc(N)cc1 [PROCAINAMIDE] , thanks.
Resp: Not Active

Req: Let me know recorded IC50 for `C[C@]12C=CC(=O)C=C1CC[C@@H]1[C@@H]2C(=O)C[C@@]2(C)[C@H]1CC[C@]2(O)C(=O)CO` , thanks.
Resp: Not Active

Req: Let me know recorded IC50 for `O=C(O)CCCc1cccs1` , thanks.
Resp: Not Active

Req: Let me know recorded IC50 for O=c1[nH]c(=O)n(C2CCCO2)cc1F (stereo unspecified) , thanks.
Resp: Not Active

Req: Let me know recorded IC50 for `C[N+](C)(C)C[C@H](O)CC(=O)[O-]` , thanks.
Resp: Not Active

Req: Let me know recorded IC50 for `CC1=NN(c2ccccc2)C(=O)C1` , thanks.
Resp: Not Active

Req: Let me know recorded IC50 for C[S+](C)[O-] [DIMETHYL SULFOXIDE] , thanks.
Resp: Not Active

Req: Let me know recorded IC50 for CCc1ccc(CCOc2ccc(CC3SC(=O)NC3=O)cc2)nc1 (stereo unspecified) , thanks.
Resp: Not Active

----------
Target: Melanocortin receptor 4 (Homo sapiens, UniProt P32245); also: in other assays of this panel Not Active means under 50% inhibition at 10 µM
Sequence (P32245 whole entry): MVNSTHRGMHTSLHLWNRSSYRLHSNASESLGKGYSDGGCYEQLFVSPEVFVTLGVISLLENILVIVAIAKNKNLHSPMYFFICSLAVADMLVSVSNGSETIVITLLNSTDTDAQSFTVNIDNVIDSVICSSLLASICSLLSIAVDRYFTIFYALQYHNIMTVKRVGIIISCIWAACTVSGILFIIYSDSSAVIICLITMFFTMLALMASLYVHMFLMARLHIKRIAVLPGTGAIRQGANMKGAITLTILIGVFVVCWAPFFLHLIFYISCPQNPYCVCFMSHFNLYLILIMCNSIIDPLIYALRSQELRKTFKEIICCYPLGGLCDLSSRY
Format: cell membranes, Membrane
Conditions: hek293; read-out: IC50
READOUT NAME: pIC50
The read-out pIC50 is expressed as -log10 of concentration in moles per litre.

Req: State the measured pIC50 (Melanocortin receptor 4 (Homo sapiens, UniProt P32245)) of `COLISTIN`
Resp: 6.08

----------
Molecular target: Muscarinic acetylcholine receptor M5 (Homo sapiens); also: in other assays of this panel Not Active means under 50% inhibition at 10 µM
Sequence (P08912 whole entry): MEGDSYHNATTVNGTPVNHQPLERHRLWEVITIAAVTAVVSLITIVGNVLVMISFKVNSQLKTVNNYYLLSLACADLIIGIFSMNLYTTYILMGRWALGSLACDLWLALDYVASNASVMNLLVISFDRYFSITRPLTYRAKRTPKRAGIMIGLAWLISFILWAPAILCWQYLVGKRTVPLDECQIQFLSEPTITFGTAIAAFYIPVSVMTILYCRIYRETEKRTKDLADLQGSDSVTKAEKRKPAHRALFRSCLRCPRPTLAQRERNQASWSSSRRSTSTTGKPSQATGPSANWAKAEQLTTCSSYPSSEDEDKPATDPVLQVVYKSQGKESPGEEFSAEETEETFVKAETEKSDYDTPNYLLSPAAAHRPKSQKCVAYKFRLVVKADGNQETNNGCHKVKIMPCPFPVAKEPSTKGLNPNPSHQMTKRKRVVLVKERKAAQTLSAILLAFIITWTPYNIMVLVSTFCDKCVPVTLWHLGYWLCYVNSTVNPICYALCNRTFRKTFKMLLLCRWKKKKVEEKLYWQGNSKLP
Type: cell membranes, CHO-K1, Membrane
Details: cho-k1
READOUT NAME: IC50

Would you please look over these solved cases?
>>> measured("COc1ccc2c(c1OC)C(=O)O[C@@H]2[C@H]1c2c(cc3c(c2OC)OCO3)CCN1C [NOSCAPINE]")
"Not Active"
>>> measured("CS(=O)(=O)Nc1ccc([N+](=O)[O-])cc1Oc1ccccc1 [NIMESULIDE]")
"Not Active"
>>> measured("Cc1ccc(C(=O)c2ccc(CC(=O)O)n2C)cc1 [TOLMETIN]")
"Not Active"
>>> measured("CN1CCN(c2c(F)cc3c(=O)c(C(=O)O)cn(CCF)c3c2F)CC1 [FLEROXACIN]")
"Not Active"
>>> measured("COc1ccnc(C[S+]([O-])c2nc3ccc(OC(F)F)cc3[nH]2)c1OC (configuration not stated) [PANTOPRAZOLE]")
"Not Active"
>>> measured("CCOc1nc2cccc(C(=O)O)c2n1Cc1ccc(-c2ccccc2-c2nnn[nH]2)cc1")
"Not Active"
>>> measured("CC(=N)S [THIOACETAMIDE]")
"Not Active"
>>> measured("O=C(O)c1ccccc1O [SALICYLIC ACID]")
"Not Active"

Req: Let me know recorded IC50 for CC[C@]1(O)C[C@@H]2CN(CCc3c([nH]c4ccccc34)[C@@](C(=O)OC)(c3cc4c(cc3OC)N(C)[C@H]3[C@@](O)(C(N)=O)[C@H](O)[C@]5(CC)C=CCN6CC[C@]43[C@@H]65)C2)C1 [VINDESINE] , thanks.
Resp: Not Active

Req: Let me know recorded IC50 for CC(=O)OCC(=O)[C@@]12OC(C)(C)O[C@@H]1C[C@H]1[C@@H]3C[C@H](F)C4=CC(=O)C=C[C@]4(C)[C@@]3(F)[C@@H](O)C[C@@]12C [FLUOCINONIDE] , thanks.
Resp: Not Active

Req: Let me know recorded IC50 for CN1C(=O)CN=C(c2ccccc2)c2cc([N+](=O)[O-])ccc21 [NIMETAZEPAM] , thanks.
Resp: Not Active

Req: Let me know recorded IC50 for Clc1ccc(COC(Cn2ccnc2)c2ccc(Cl)cc2Cl)c(Cl)c1 (configuration not stated) [MICONAZOLE] , thanks.
Resp: Not Active

Req: Let me know recorded IC50 for ClC(Cl)(Cl)Cl [CARBON TETRACHLORIDE] , thanks.
Resp: Not Active

----------
Target: Sodium-dependent noradrenaline transporter (Homo sapiens, UniProt P23975)
Sequence (P23975 whole entry): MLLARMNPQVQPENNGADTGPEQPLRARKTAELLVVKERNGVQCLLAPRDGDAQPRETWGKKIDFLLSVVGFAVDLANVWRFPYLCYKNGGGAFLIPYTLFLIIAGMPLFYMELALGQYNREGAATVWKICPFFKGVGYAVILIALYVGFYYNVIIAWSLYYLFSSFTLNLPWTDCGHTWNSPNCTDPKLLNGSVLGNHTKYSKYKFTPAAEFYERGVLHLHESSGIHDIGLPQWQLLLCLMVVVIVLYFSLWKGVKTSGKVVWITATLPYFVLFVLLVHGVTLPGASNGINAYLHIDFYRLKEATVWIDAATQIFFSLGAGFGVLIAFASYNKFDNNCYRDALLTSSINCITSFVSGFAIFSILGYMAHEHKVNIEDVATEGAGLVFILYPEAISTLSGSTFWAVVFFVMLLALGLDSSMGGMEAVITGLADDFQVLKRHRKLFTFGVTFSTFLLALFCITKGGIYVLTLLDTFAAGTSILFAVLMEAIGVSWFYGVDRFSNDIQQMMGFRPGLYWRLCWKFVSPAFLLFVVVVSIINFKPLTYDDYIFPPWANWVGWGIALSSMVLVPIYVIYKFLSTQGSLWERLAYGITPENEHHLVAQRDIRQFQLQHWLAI
Assay: DRUGMATRIX: Norepinephrine Transporter radioligand binding (ligand: [125I] RTI-55)
Format: cell membranes, MDCK, Membrane
Details: mdck; Not Active = under 50% inhibition at 10 µM
READOUT NAME: IC50

Would you please look over these solved cases?
>>> measured("O=C(c1ccccc1F)N1CCC(Cc2ccccc2)CC1")
"Not Active"
>>> measured("C[C@]12CC[C@@H]3c4ccc(O)cc4CC[C@H]3[C@@H]1C[C@@H](O)[C@@H]2O")
"Not Active"
>>> measured("C[C@H]1O[C@H](O[C@H]2[C@H](O)[C@@H](O)[C@@H](O[C@H]3[C@H](O)[C@@H](O)C(O)O[C@@H]3CO)O[C@@H]2CO)[C@H](O)[C@@H](O)[C@@H]1N[C@H]1C=C(CO)[C@@H](O)[C@H](O)[C@H]1O (stereo partly drawn)")
"Not Active"
>>> measured("NS(=O)(=O)c1cc(C2(O)NC(=O)c3ccccc32)ccc1Cl (stereo not drawn)")
"Not Active"
>>> measured("NC12CC3CC(CC(C3)C1)C2")
"Not Active"

Req: Let me know recorded IC50 for COc1ccnc(C[S+]([O-])c2nc3ccc(OC(F)F)cc3[nH]2)c1OC (stereo not drawn) , thanks.
Resp: Not Active

Req: Let me know recorded IC50 for CCc1ccc(CCOc2ccc(CC3SC(=O)NC3=O)cc2)nc1 (stereo not drawn) , thanks.
Resp: Not Active

Req: Let me know recorded IC50 for `CN1CCC(=C2c3ccccc3CC(=O)c3sccc32)CC1` , thanks.
Resp: Not Active

----------
Target: Voltage-gated inwardly rectifying potassium channel KCNH2 (Homo sapiens); also: in other assays of this panel Not Active means under 50% inhibition at 10 µM
Sequence (Q12809 whole entry): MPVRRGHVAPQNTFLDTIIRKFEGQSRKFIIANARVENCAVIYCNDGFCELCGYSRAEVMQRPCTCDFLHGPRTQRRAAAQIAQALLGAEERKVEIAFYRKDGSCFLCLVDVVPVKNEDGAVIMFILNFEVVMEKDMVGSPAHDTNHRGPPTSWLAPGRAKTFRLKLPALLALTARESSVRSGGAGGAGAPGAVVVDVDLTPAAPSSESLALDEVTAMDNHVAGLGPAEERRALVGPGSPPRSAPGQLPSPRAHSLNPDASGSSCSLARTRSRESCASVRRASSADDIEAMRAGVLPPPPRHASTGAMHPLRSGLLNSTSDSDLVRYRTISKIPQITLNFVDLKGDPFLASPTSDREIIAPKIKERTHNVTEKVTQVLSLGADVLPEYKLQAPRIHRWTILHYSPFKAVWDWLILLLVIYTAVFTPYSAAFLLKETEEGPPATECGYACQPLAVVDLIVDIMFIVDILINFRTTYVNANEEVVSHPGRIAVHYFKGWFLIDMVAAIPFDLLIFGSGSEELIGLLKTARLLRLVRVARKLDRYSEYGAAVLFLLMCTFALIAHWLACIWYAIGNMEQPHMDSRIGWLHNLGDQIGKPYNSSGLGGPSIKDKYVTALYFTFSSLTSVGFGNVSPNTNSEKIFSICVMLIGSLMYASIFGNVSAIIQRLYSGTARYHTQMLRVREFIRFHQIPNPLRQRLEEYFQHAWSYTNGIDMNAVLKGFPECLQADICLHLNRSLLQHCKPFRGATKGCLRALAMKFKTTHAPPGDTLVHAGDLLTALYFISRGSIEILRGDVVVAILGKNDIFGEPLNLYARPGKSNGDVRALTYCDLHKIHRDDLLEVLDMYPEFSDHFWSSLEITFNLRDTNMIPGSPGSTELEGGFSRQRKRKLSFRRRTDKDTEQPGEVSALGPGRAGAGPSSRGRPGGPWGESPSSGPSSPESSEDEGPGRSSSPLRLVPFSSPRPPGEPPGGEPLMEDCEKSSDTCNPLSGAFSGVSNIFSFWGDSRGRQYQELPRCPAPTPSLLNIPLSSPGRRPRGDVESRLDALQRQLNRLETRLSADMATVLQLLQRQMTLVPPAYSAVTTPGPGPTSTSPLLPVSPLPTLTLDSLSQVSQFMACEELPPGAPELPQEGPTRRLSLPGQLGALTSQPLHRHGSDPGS
Conditions: hek293
READOUT NAME: IC50

Would you please look over these solved cases?
>>> measured("NC(=O)N1c2ccccc2CC(=O)c2ccccc21 [OXCARBAZEPINE]")
"Not Active"
>>> measured("C[C@H]1[C@H](NC(=O)/C(=N\\OC(C)(C)C(=O)O)c2csc(N)n2)C(=O)N1S(=O)(=O)O")
"Not Active"
>>> measured("CCc1ccc(CCOc2ccc(CC3SC(=O)NC3=O)cc2)nc1 (stereo not drawn)")
"Not Active"
>>> measured("O=C(O)CC(O)(CC(=O)O)C(=O)O")
"Not Active"
>>> measured("CN1C(=O)CN=C(c2ccccc2)c2cc([N+](=O)[O-])ccc21")
"Not Active"

Req: Let me know recorded IC50 for `CC(O)(P(=O)(O)O)P(=O)(O)O` , thanks.
Resp: Not Active

Req: Let me know recorded IC50 for `O=C1C[C@@H]2OCC=C3CN4CC[C@]56c7ccccc7N1[C@H]5[C@H]2[C@H]3C[C@H]46` , thanks.
Resp: Not Active

Req: Let me know recorded IC50 for `CC(C)C[C@H]1C(=O)N2CCC[C@H]2[C@]2(O)O[C@](NC(=O)[C@@H]3C=C4c5cccc6[nH]cc(c56)C[C@H]4N(C)C3)(C(C)C)C(=O)N12` , thanks.
Resp: Not Active
